target: Glucagon receptor (Homo sapiens, UniProt P47871); assay: Binding affinity towards human glucagon receptor in absence of Mg2+ expressed as IC50
Sequence (P47871 whole entry): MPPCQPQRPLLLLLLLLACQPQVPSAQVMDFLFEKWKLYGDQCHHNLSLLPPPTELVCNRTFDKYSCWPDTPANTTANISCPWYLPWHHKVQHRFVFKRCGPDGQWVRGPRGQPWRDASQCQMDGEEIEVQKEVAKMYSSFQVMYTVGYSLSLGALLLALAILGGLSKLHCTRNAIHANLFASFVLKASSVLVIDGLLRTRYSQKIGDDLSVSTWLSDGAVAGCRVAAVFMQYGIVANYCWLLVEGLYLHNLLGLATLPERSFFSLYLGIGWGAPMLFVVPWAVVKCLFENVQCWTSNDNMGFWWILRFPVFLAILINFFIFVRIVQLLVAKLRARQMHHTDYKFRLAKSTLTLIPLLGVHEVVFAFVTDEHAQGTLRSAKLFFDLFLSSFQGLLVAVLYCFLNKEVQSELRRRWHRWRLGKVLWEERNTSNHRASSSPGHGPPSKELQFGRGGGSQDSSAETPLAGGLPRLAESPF
pIC50: −log10 of the molar value.
Outcome Measure: pIC50

# example entries with known answers
| Compound | Observed Result |
| --- | --- |
| Fc1ccc(-c2[nH]c(-c3ccc(-c4ccccc4)cc3)nc2-c2ccncc2)cc1 | 5.00 |
| Fc1ccc(-c2[nH]c(-c3cccc4ccccc34)nc2-c2ccncc2)cc1 | 5.82 |

[I] Clc1ccc(-c2nc(-c3ccc(Cl)cc3)c(-c3ccncc3)[nH]2)cc1
[II] CCCOc1ccc(-c2[nH]c(-c3ccc(Cl)cc3)nc2-c2ccncc2)c(OCCC)c1
[III] CC(C)c1ccc(-c2nc(-c3ccc(F)cc3)c(-c3ccncc3)[nH]2)cc1
Q: Hello, I need these entries ordered by pIC50, highest reading first. Thanks! Your answer should be the labels, listed in the requested order.
Result: II, I, III
(II: 7.89, I: 6.72, III: 6.15)

* * *

target: MAP kinase p38 (Homo sapiens, UniProt O15264+Q15759+Q16539+P53778); assay: Binding affinity towards human Mitogen-activated protein kinase p38 expressed as IC50; type: protein assay
Outcome Measure: IC50 (nM)

# example entries with known answers
| Compound | Assayed System | Observed Result |
| --- | --- | --- |
| Fc1ccc(-c2[nH]c(-c3ccccc3Br)nc2-c2ccncc2)cc1 | MAP kinase p38 (Homo sapiens, UniProt O15264+Q15759+Q16539+P53778) | 90 |
| Clc1ccc(-c2nc(-c3cccc(-c4ccccc4)c3)c(-c3ccncc3)[nH]2)cc1 | MAP kinase p38 (Homo sapiens, UniProt O15264+Q15759+Q16539+P53778) | 590 |
| Fc1ccc(-c2[nH]c(-c3ccc(-c4ccccc4)cc3)nc2-c2ccncc2)cc1 | MAP kinase p38 (Homo sapiens, UniProt O15264+Q15759+Q16539+P53778) | 300 |
| Cc1cc(-c2[nH]c(-c3ccc(Cl)cc3)nc2-c2ccc(F)cc2)ccn1 | MAP kinase p38 (Homo sapiens, UniProt O15264+Q15759+Q16539+P53778) | 50 |

[a] Brc1ccc(-c2nc(-c3ccccc3)c(-c3ccccc3)[nH]2)cc1
[b] Cc1cnccc1-c1[nH]c(-c2ccc(Cl)cc2)nc1-c1ccc(F)cc1
[c] Oc1ccc(-c2[nH]c(-c3ccc(Br)cc3)nc2-c2ccccc2)cc1
Q: Number of compounds to sort: 3. Sort criterion: IC50, ascending. Your answer should be the labels, listed in the requested order.
Result: b, c, a

* * *

molecular target: Glucagon receptor (Homo sapiens); assay: Binding affinity towards human glucagon receptor in absence of Mg2+ expressed as IC50
Outcome Measure: IC50 (nM)

# example entries with known answers
| Compound | Unit Name | IC50 |
| --- | --- | --- |
| N#Cc1ccc(-c2nc(-c3ccncc3)c(-c3ccc(F)cc3)[nH]2)cc1 | nM | 8000 |
| CC(C)(C)c1ccc(-c2[nH]c(-c3ccc(Cl)cc3)nc2-c2ccncc2)cc1 | nM | 130 |
| Clc1ccc(-c2nc(-c3cccc(Oc4ccccc4)c3)c(-c3ccncc3)[nH]2)cc1 | nM | 13 |
| CCCCOc1ccc(-c2[nH]c(-c3ccc(Cl)cc3)nc2-c2ccncc2)c(OCCCC)c1 | nM | 6.5 |
| Cc1ccc(-c2nc(-c3ccc(F)cc3)c(-c3ccncc3)[nH]2)cc1 | nM | 1300 |

[I] Brc1ccc(-c2nc(-c3ccccc3)c(-c3ccncc3)[nH]2)cc1
[II] Fc1ccc(-c2[nH]c(-c3cccc(Br)c3)nc2-c2ccncc2)cc1
Q: # min-compare on IC50 between I and II Mark your selection by writing its label.
Result: I
(I: 782 nM, II: 1400 nM)

* * *

biological target: Glucagon receptor (Homo sapiens); assay: Binding affinity towards human glucagon receptor in absence of Mg2+ expressed as IC50
Outcome Measure: IC50 (nM)

| Compound | Observed Result |
| --- | --- |
| Fc1ccc(-c2[nH]c(-c3ccc(I)cc3)nc2-c2ccncc2)cc1 | 510 |
| Fc1ccc(-c2[nH]c(-c3ccc(Br)cc3)nc2-c2ccncc2)cc1 | 270 |
| Clc1ccc(-c2nc(-c3ccc(Oc4ccccc4)cc3)c(-c3ccncc3)[nH]2)cc1 | 27 |

[1] CCCCc1ccc(-c2[nH]c(-c3ccc(Cl)cc3)nc2-c2ccncc2)cc1
[2] Clc1ccc(-c2nc(-c3ccccc3Oc3ccccc3)c(-c3ccncc3)[nH]2)cc1
[3] Cc1cnccc1-c1[nH]c(-c2ccc(Cl)cc2)nc1-c1ccc(F)cc1
Q: Hello, I need these entries ordered by IC50, highest reading first. Thanks! Your answer should be the labels, listed in the requested order.
Result: 3, 1, 2

* * *

target: Glucagon receptor (Homo sapiens, UniProt P47871); assay: Affinity for human glucagon receptor in presence of Mg2+
Outcome Measure: IC50 (nM)

# example entries with known answers
| Compound | Observed Result |
| --- | --- |
| CCCCOc1ccc(-c2[nH]c(-c3ccc(Cl)cc3)nc2-c2ccncc2)c(OCCCC)c1 | 53 |
| CCCCc1ccc(-c2[nH]c(-c3ccc(Cl)cc3)nc2-c2ccncc2)cc1 | 150 |
| Clc1ccc(-c2nc(-c3ccc(Oc4ccccc4)cc3)c(-c3ccncc3)[nH]2)cc1 | 110 |
| Clc1ccc(-c2nc(-c3ccccc3Oc3ccccc3)c(-c3ccncc3)[nH]2)cc1 | 290 |
| Clc1ccc(-c2nc(-c3ccc(-c4ccccc4)cc3)c(-c3ccncc3)[nH]2)cc1 | 3800 |

[I] Clc1ccc(-c2nc(-c3ccc(I)cc3)c(-c3ccncc3)[nH]2)cc1
[II] Fc1ccc(-c2[nH]c(-c3ccc(Cl)cc3)nc2-c2ccncc2)cc1
[III] CCCOc1ccc(-c2[nH]c(-c3ccc(Cl)cc3)nc2-c2ccncc2)c(OCCC)c1
Q: Number of compounds to sort: 3. Sort criterion: IC50, ascending. Your answer should be the labels, listed in the requested order.
Result: III, I, II
(III: 120 nM, I: 750 nM, II: 3200 nM)

* * *

biological target: Glucagon receptor (Homo sapiens, UniProt P47871); experiment: Affinity for human glucagon receptor in presence of Mg2+
pIC50: −log10 of the molar value.
Outcome Measure: pIC50

| Compound | pIC50 |
| --- | --- |
| CCCCOc1ccccc1-c1[nH]c(-c2ccc(Cl)cc2)nc1-c1ccncc1 | 6.96 |

[1] Clc1ccc(-c2nc(-c3cccc(Oc4ccccc4)c3)c(-c3ccncc3)[nH]2)cc1
[2] Clc1ccc(-c2nc(-c3ccc(Cl)cc3)c(-c3ccncc3)[nH]2)cc1
Q: # min-compare on pIC50 between 1 and 2 Mark your selection by writing its label.
Result: 2
(2: 5.66, 1: 6.82)

* * *

molecular target: MAP kinase p38 (Homo sapiens, UniProt O15264+Q15759+Q16539+P53778); assay: Binding affinity towards human Mitogen-activated protein kinase p38 expressed as IC50; assay type: protein assay
Outcome Measure: IC50 (µM)

# example entries with known answers
| Compound | Unit Name | IC50 |
| --- | --- | --- |
| CSc1ccc(-c2nc(-c3ccc(F)cc3)c(-c3ccncc3)o2)cc1 | µM | 0.93 |
| CSc1ccc(-c2nc(-c3ccncc3)c(-c3ccc(F)cc3)n2C)cc1 | µM | 0.86 |
| N#Cc1ccc(-c2nc(-c3ccncc3)c(-c3ccc(F)cc3)[nH]2)cc1 | µM | 0.21 |
| Fc1ccc(-c2[nH]c(-c3cccc4ccccc34)nc2-c2ccncc2)cc1 | µM | 0.34 |
| Clc1ccc(-c2nc(-c3cccc(Oc4ccccc4)c3)c(-c3ccncc3)[nH]2)cc1 | µM | 0.22 |

[A] Clc1ccc(-c2nc(-c3ccccc3Oc3ccccc3)c(-c3ccncc3)[nH]2)cc1
[B] Brc1ccc(-c2nc(-c3ccccc3)c(-c3ccncc3)[nH]2)cc1
[C] CC(C)c1ccc(-c2nc(-c3ccc(F)cc3)c(-c3ccncc3)[nH]2)cc1
[D] Cc1ccc(-c2nc(-c3ccc(F)cc3)c(-c3ccncc3)[nH]2)cc1
Q: Hello, I need these entries ordered by IC50, highest reading first. Thanks! Your answer should be the labels, listed in the requested order.
Result: C, A, D, B
(C: 0.28 µM, A: 0.15 µM, D: 0.09 µM, B: 0.04 µM)

* * *

biological target: Glucagon receptor (Homo sapiens, UniProt P47871); test: Affinity for human glucagon receptor in absence of Mg2+; design: concentration or dose not given beside the values; settings: concentration not given here
Outcome Measure: inhibition (%)

# example entries with known answers
| Compound | Assayed System | inhibition [%] |
| --- | --- | --- |
| CSc1ccc(-c2nc(-c3ccncc3)c(-c3ccc(F)cc3)n2C)cc1 | Glucagon receptor (Homo sapiens, UniProt P47871) | 38 |
| Brc1ccc(-c2nc(-c3ccccc3)c(-c3ccccc3)[nH]2)cc1 | Glucagon receptor (Homo sapiens, UniProt P47871) | 37 |

[A] Cc1cc(-c2[nH]c(-c3ccc(Cl)cc3)nc2-c2ccc(F)cc2)ccn1
[B] Oc1ccc(-c2[nH]c(-c3ccc(Br)cc3)nc2-c2ccccc2)cc1
[C] CSc1ccc(-c2nc(-c3ccc(F)cc3)c(-c3ccncc3)n2C)cc1
[D] CSc1ccc(-c2nc(-c3ccc(F)cc3)c(-c3ccncc3)o2)cc1
Q: Number of compounds to sort: 4. Sort criterion: inhibition, ascending. Your answer should be the labels, listed in the requested order.
Result: D, C, B, A
